B1: HDV Ribozyme (parent)
chain: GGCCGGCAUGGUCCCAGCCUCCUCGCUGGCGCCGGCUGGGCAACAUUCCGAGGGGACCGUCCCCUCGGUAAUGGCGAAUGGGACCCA

variants of: B1; assay: self-cleavage, relative activity (ratio to wild type); higher = more cleavage; co-transcriptional
Values of self-cleavage greater than or equal to 0.5 map to true (1); values below map to false (0).

sequence_string=GGGCUGCAUGGUCCCAGCCUCCUCGCUGGCGCCGGCUGGGCAACAUUCCGAGGGGACCGUCCCCUCGGUAAUGGCGAAUGGGACCCA assigned_label="false (0)"
sequence_string=GGCCGGCAUGGUCCCAGCCUCCUCGCAGGCGCCGGCUGGGCAACAUUCCCAGGGGACCGUCCCCUCGGUAAUGGCGAAUGGGACCCA assigned_label="true (1)"
sequence_string=GGCCGGCAUGGUCCCAGCCACCUCGCUGGCGCCGGCUGGGCAACAUUCCGAGGGGACCGUCCCCUCGGUAAUGGCGAAUGCGACCCA assigned_label="false (0)"

Attention now shifts to the item below.
Evaluate GGCCGGCAUGGUCCCAGCCUCCUCGCUGGCGCCGGCUGGGCAACAUUCCGAGGGGACCGUCCCCUCGGUAAUGGCGGAGGGGACCCA : self-cleavage at minimum 0.5?
false (0)

Measured values drawn from the RNAGym collection of RNA variant scans (doi:10.7554/elife.80360) for this set.
